Cited source for all entries: patent US20250032454A1

As an illustration, consider measured IC50 for molecules on UniProtKB O60341.

INPUT: For UniProtKB O60341, provide IC50 of COc1ccc(-n2nc(NCC3CC3N)cc2-c2ccc(C#N)c(F)c2)cc1 (racemic) [Example 29] please.
OUTPUT: 1000 to 10000 nM

* * *

- measured.on: LSD1 (Homo sapiens, UniProt O60341)
readout: IC50

Example entries begin here.
- N#Cc1ccc(-c2cc(NC[C@@H]3CCCNCC3)nn2-c2ccc(N3CCCC3)cc2)cc1F (single isomer, unassigned) [Example 24a]: < 500 nM
- N#Cc1ccc(-c2cc(NC[C@H]3CCCNCC3)nn2-c2ccc(N3CCCC3)cc2)cc1F (single isomer, unassigned) [Example 24b]: < 500 nM

API: the following record is the query input.
INPUT: Reported IC50 for LSD1 (Homo sapiens, UniProt O60341), given CS(=O)(=O)n1cc(-c2cccc(-n3nc(NC[C@H]4CCC[C@H](N)C4)cc3-c3ccc(C#N)c(F)c3)c2)cn1 ?
OUTPUT: 1000 to 10000 nM
